From: patent US20240383942A1

Here the recorded Concentration of the compound to be tested (parent) is given for each entry.
# test: In vitro metabolic study in human liver microsome incubation system
# condition-parameters: human liver microsomes 0.5 mg protein/mL, NADPH, 37° C., incubation time 15 min
All answers are understood in nM, so give the number only.

>>> print(df.to_string())
                                smiles_text  observed_result
0            O=C(O)Cc1ccccc1Nc1c(Cl)cccc1Cl               77
1  CC(=O)[C@H]1CC[C@H]2[C@@H]3CC[C@H]4C[C@H](OC(=O)[C@@H](N)C(C)C)CC[C@]4(C)[C@H]3CC[C@]12C              680
2  [2H]C(C)(C)[C@H](N)C(=O)O[C@@H]1CC[C@@]2(C)[C@@H](CC[C@@H]3[C@@H]2CC[C@]2(C)[C@@H](C(C)=O)CC[C@@H]32)C1              874
3  CC(=O)[C@H]1CC[C@H]2[C@@H]3CC[C@H]4C[C@H](O)CC[C@]4(C)[C@H]3CC[C@]12C              414

Kindly review the next compound as well.
In: Can you look up the measured Concentration of the compound to be tested (parent) of C[C@]12CC[C@H]3[C@@H](CCC4=CC(=O)CC[C@@]43C)[C@@H]1CC[C@@H]2O for me?
Out: 379

* * *

Here the recorded Concentration of the compound to be tested (parent) is given for each entry.
# test: In vitro metabolic study in human liver microsome incubation system
# condition-parameters: human liver microsomes 0.5 mg protein/mL, NADPH, 37° C., incubation time 5 min
All answers are understood in nM, so give the number only.

Known Concentration of the compound to be tested (parent) results, listed for orientation:
In [3]: df
Out[3]:
                                smiles_text  observed_result
0  CC(=O)[C@H]1CC[C@H]2[C@@H]3CC[C@H]4C[C@H](OC(=O)[C@@H](N)C(C)C)CC[C@]4(C)[C@H]3CC[C@]12C              801
1            O=C(O)Cc1ccccc1Nc1c(Cl)cccc1Cl              374
2  CC(=O)[C@H]1CC[C@H]2[C@@H]3CC[C@H]4C[C@H](O)CC[C@]4(C)[C@H]3CC[C@]12C              626
3  C[C@]12CC[C@H]3[C@@H](CCC4=CC(=O)CC[C@@]43C)[C@@H]1CC[C@@H]2O              677

Kindly review the next compound as well.
In: Can you look up the measured Concentration of the compound to be tested (parent) of [2H]C(C)(C)[C@H](N)C(=O)O[C@@H]1CC[C@@]2(C)[C@@H](CC[C@@H]3[C@@H]2CC[C@]2(C)[C@@H](C(C)=O)CC[C@@H]32)C1 for me?
Out: 956

* * *

# test: In vitro metabolic study in human liver microsome incubation system
# condition-parameters: human liver microsomes 0.5 mg protein/mL, NADPH, 37° C., incubation time 60 min
Here the recorded Concentration of the compound to be tested (parent) is given for each entry.
All answers are understood in nM, so give the number only.

Known Concentration of the compound to be tested (parent) results, listed for orientation:
>>> df
                                smiles_text  scale_unit  observed_result
0  C[C@]12CC[C@H]3[C@@H](CCC4=CC(=O)CC[C@@]43C)[C@@H]1CC[C@@H]2O          nM               44
1  CC(=O)[C@H]1CC[C@H]2[C@@H]3CC[C@H]4C[C@H](O)CC[C@]4(C)[C@H]3CC[C@]12C          nM              119
2  CC(=O)[C@H]1CC[C@H]2[C@@H]3CC[C@H]4C[C@H](OC(=O)[C@@H](N)C(C)C)CC[C@]4(C)[C@H]3CC[C@]12C          nM              256
3            O=C(O)Cc1ccccc1Nc1c(Cl)cccc1Cl          nM                1

Kindly review the next molecule as well.
In: Can you look up the measured Concentration of the compound to be tested (parent) of [2H]C(C)(C)[C@H](N)C(=O)O[C@@H]1CC[C@@]2(C)[C@@H](CC[C@@H]3[C@@H]2CC[C@]2(C)[C@@H](C(C)=O)CC[C@@H]32)C1 for me?
Out: 352

* * *

# test: In vitro metabolic study in human liver microsome incubation system
# condition-parameters: human liver microsomes 0.5 mg protein/mL, NADPH, 37° C., incubation time 45 min
# Procedure: Instruments, conditions and parameters: liquid chromatography-mass spectrometry system (LC/MS/MS, Shimadzu LC 30-AD, MS API 4000); the chromatographic column was ACQUITY UPLC BEH C18 column (1.7 μm 2.1×50 mm Column, Part No. 186002350); the mobile phase was acetonitrile-water-formic acid (50:50:0.1); the flow rate was 0.7 mL/min; the injection volume was 5μL; the column temperature was room temperature. […]
API: label(entry) gives Met if the entry's Concentration of the compound to be tested (parent) is strictly smaller than 200 nM; on equality or larger values it gives Not met.

>>> df
                                   compound  cat
0  C[C@]12CC[C@H]3[C@@H](CCC4=CC(=O)CC[C@@]43C)[C@@H]1CC[C@@H]2O [Testosterone, testosterone]  Met
1  CC(=O)[C@H]1CC[C@H]2[C@@H]3CC[C@H]4C[C@H](O)CC[C@]4(C)[C@H]3CC[C@]12C [Allopregnanolone, 3α-OH-5α-pregnan-20-one]  Met

In: Field: below-cutoff. Rule: recorded Concentration of the compound to be tested (parent) strictly less than 200 nM. Subject: [2H]C(C)(C)[C@H](N)C(=O)O[C@@H]1CC[C@@]2(C)[C@@H](CC[C@@H]3[C@@H]2CC[C@]2(C)[C@@H](C(C)=O)CC[C@@H]32)C1 [Compound 1]
Out: Not met

In: Query CC(=O)[C@H]1CC[C@H]2[C@@H]3CC[C@H]4C[C@H](OC(=O)[C@@H](N)C(C)C)CC[C@]4(C)[C@H]3CC[C@]12C [Comparative compound 1] next
Out: Not met

In: Query O=C(O)Cc1ccccc1Nc1c(Cl)cccc1Cl [Diclofenac, diclofenac] next
Out: Met

* * *

# test: In vitro metabolic study in human liver microsome incubation system
# condition-parameters: human liver microsomes 0.5 mg protein/mL, NADPH, 37° C., incubation time 30 min
API: label(entry) gives t if the entry's Concentration of the compound to be tested (parent) is strictly smaller than 300 nM; on equality or larger values it gives f.

>>> df
                                   compound  cat
0  O=C(O)Cc1ccccc1Nc1c(Cl)cccc1Cl [Diclofenac, diclofenac]    t
1  CC(=O)[C@H]1CC[C@H]2[C@@H]3CC[C@H]4C[C@H](O)CC[C@]4(C)[C@H]3CC[C@]12C [Allopregnanolone, 3α-OH-5α-pregnan-20-one]    t
2  C[C@]12CC[C@H]3[C@@H](CCC4=CC(=O)CC[C@@]43C)[C@@H]1CC[C@@H]2O [Testosterone, testosterone]    t
3  [2H]C(C)(C)[C@H](N)C(=O)O[C@@H]1CC[C@@]2(C)[C@@H](CC[C@@H]3[C@@H]2CC[C@]2(C)[C@@H](C(C)=O)CC[C@@H]32)C1 [Compound 1]    f

In: Field: below-cutoff. Rule: recorded Concentration of the compound to be tested (parent) strictly less than 300 nM. Subject: CC(=O)[C@H]1CC[C@H]2[C@@H]3CC[C@H]4C[C@H](OC(=O)[C@@H](N)C(C)C)CC[C@]4(C)[C@H]3CC[C@]12C [Comparative compound 1]
Out: f

* * *

# target: hERG potassium channel (Homo sapiens, UniProt Q12809)
# Sequence (Q12809 whole entry): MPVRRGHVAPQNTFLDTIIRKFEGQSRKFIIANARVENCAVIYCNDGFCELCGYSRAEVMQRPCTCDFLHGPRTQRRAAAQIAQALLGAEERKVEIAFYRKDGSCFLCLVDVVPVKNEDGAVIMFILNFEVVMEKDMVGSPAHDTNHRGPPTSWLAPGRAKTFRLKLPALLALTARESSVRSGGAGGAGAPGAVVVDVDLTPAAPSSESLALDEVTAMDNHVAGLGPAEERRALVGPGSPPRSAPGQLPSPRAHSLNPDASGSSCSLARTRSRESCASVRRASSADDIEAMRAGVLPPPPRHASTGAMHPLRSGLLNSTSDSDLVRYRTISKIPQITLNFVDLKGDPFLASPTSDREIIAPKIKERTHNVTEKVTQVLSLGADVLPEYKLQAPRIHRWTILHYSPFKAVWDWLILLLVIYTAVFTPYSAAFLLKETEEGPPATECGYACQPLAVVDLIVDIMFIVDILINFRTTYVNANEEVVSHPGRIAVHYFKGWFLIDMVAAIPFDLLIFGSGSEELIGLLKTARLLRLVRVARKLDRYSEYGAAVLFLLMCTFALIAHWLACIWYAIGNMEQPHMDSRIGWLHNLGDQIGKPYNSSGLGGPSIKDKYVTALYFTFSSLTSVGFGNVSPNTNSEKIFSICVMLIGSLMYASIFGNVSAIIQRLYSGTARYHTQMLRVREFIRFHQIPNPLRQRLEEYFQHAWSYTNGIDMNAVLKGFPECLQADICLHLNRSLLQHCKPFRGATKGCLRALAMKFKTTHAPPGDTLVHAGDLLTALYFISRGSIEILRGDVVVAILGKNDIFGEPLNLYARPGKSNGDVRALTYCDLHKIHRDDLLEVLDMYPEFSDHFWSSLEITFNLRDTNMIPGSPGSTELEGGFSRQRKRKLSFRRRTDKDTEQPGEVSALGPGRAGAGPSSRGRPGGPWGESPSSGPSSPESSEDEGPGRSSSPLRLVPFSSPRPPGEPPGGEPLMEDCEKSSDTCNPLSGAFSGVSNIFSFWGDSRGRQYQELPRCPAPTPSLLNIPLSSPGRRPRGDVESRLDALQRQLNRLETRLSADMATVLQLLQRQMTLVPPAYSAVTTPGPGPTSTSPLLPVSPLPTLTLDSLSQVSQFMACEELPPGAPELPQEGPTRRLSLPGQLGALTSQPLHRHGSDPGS
# test: Manual patch clamp assay of hERG potassium channel current in CHO-hERG cells
Here the recorded pIC50 is given for each entry.
A value of pIC50 is the negative decimal logarithm of a concentration given in moles per litre.

                                smiles_text  observed_result
0  [2H]C(C)(C)[C@H](N)C(=O)O[C@@H]1CC[C@@]2(C)[C@@H](CC[C@@H]3[C@@H]2CC[C@]2(C)[C@@H](C(C)=O)CC[C@@H]32)C1             5.71

In: Can you look up the measured pIC50 of CC(=O)[C@H]1CC[C@H]2[C@@H]3CC[C@H]4C[C@H](OC(=O)[C@@H](N)C(C)C)CC[C@]4(C)[C@H]3CC[C@]12C for me?
Out: 6.11
